All figures here come from patent US9566312B2.

target: UniProtKB P30405; assay: Inhibitor binding to cyclophilin proteins by SPR, CypF; details: 1:1 binding model
Sequence (P30405 30-207): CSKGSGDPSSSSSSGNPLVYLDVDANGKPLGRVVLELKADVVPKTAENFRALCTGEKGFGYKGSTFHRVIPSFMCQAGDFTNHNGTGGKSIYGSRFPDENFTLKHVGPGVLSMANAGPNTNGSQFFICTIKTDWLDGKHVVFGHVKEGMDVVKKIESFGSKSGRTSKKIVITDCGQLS
Starred links: 1 amine or outer side, 2 acyl side, 3 side chain; linkers in the order of their positions; H or OH if unused. Non-standard residues stand in square brackets, D forms with d. Residues, ends and D or L forms follow the SMILES beside them. X37 = C[C@H](CN1CCC(S(C)(=O)=O)CC1)[C@@H](C(=O)[*:2])N(C)[*:1]; MeBmt = C/C=C/C[C@@H](C)[C@@H](O)[C@H](NC)C(=O)O; NMeL = CN[C@@H](CC(C)C)C(=O)O; NMeV = CN[C@H](C(=O)O)C(C)C; dNMeA = CN[C@H](C)C(=O)O; Abu = CC[C@H](N)C(=O)O
Please provide measured CypF Kd for the entries that follow.
Answers are plain numbers, in nM.

C/C=C/C[C@@H](C)[C@@H](O)[C@H]1C(=O)N[C@@H](CC)C(=O)N(C)[C@H](C)C(=O)N(C)[C@@H]([C@H](C)CN2CCC(S(C)(=O)=O)CC2)C(=O)N[C@@H](C(C)C)C(=O)N(C)[C@@H](CC(C)C)C(=O)N[C@@H](C)C(=O)N[C@H](C)C(=O)N(C)[C@@H](CC(C)C)C(=O)N(C)[C@@H](CC(C)C)C(=O)N(C)[C@@H](C(C)C)C(=O)N1C [Compound 2.5.20] (cyclo(A[dA][NMeL][NMeL][NMeV][MeBmt][Abu][dNMeA][X37]V[NMeL])): 1.6

Return reported CypF Kd. Input compound: C/C=C/C[C@@H](C)[C@@H](O)[C@H]1C(=O)N[C@@H](CC)C(=O)N(C)[C@H](CCCN2CCOCC2)C(=O)N(C)[C@@H]([C@H](C)CS(C)(=O)=O)C(=O)N[C@@H](C(C)C)C(=O)N(C)[C@@H](CC(C)C)C(=O)N[C@@H](C)C(=O)N[C@H](C)C(=O)N(C)[C@@H](CC(C)C)C(=O)N(C)[C@@H](CC(C)C)C(=O)N(C)[C@@H](C(C)C)C(=O)N1C (stereo in doubt)
5
